All values here come from the supplement of paper PMC4466140.

Each entry below carries its reported SPOT peptide array binding signal intensity.
biological target: CaFus1; assay: SPOT peptide array binding signal intensity (averaged, normalized) (arbitrary units (background-subtracted, floor 0; scale differs between SH3 domains)); higher = stronger binding of the SH3 domain to the peptide

Worked examples, 3 binders total:
# binder, measurement
rows = [
    ("DKSRPPRPPPKPLHL", "≤ 0"),
    ("QGYPRQPQRPQRYHP", "≤ 0"),
    ("STPQTMRQAPKRPDA", 202),
]

Switching to the query record.
Kindly note the recorded SPOT peptide array binding signal intensity for `PALPSLPPPPLLNVD` , which is ≤ 0
